assayComment: Mycobacterium tuberculosis growth inhibition, primary screen (AID 1259343)
testConditions: at 10 µM, hits give high values
In all, about 6,200 compounds went through this assay and about 2,900 (47%) were called active. The set was probably picked from earlier hits. The list shows a part of the results.
Label t when inhibition is at or above 80%; anything below gets f.

Below, 3 molecules whose answers are already recorded.
CC(=O)c1nnc2c(-c3ccccc3)c(C)nn2c1C ... t
O=c1cc2c(nn1Cc1ccc(Br)cc1F)CCCC2 ... f
O=C(Nc1cccc(-c2ccco2)c1)C1CCN(C(=O)Cc2ccsc2)CC1 ... t

Prompt: Please indicate if the recorded inhibition for O=C(c1scc2c1CCCC2)N1CCCC1 meets or exceeds 80%.
Completion: f

Prompt: Please indicate if the recorded inhibition for COc1cccc(Oc2ccc(C(F)(F)F)cc2NC(C)=O)c1 meets or exceeds 80%.
Completion: t

Prompt: Please indicate if the recorded inhibition for CCN(C)CC1CCN(C(=O)CC2CCC(c3ccccc3)CC2)C1 (configuration not stated) meets or exceeds 80%.
Completion: f

Prompt: Please indicate if the recorded inhibition for C=CCN(C)C(=O)c1coc(COc2ccc3ccc(OC)cc3c2)n1 meets or exceeds 80%.
Completion: f

Prompt: Please indicate if the recorded inhibition for O=C(OCc1cc2c(cc1Br)OCO2)c1cccc(O)c1 meets or exceeds 80%.
Completion: f

Prompt: Please indicate if the recorded inhibition for COc1ccc(N2CCN(C(=O)CCl)CC2)cc1 meets or exceeds 80%.
Completion: f

Prompt: Please indicate if the recorded inhibition for O=C(/C=C/c1cc(C(F)(F)F)ccc1Cl)NCc1ccon1 meets or exceeds 80%.
Completion: f

Prompt: Please indicate if the recorded inhibition for CC(=O)NC(c1ccccc1)(c1ccccc1)C(F)(F)F meets or exceeds 80%.
Completion: f

Prompt: Please indicate if the recorded inhibition for Fc1ccccc1Cn1nnc(-c2ccc(Br)cc2)n1 meets or exceeds 80%.
Completion: t

Prompt: Please indicate if the recorded inhibition for Cc1ccc(Cn2ncc3c(N4CCN(CCOc5ccc(C)cc5)CC4)ncnc32)cc1 meets or exceeds 80%.
Completion: f

Prompt: Please indicate if the recorded inhibition for O=C(O)c1cc(-c2ccccc2Cl)nc2cc(-c3ccccc3)nn12 meets or exceeds 80%.
Completion: t
